Entry source: patent US20090022728A1

- assay.target: T1, biotinylated Aβ1-40 peptide (biotinylated (N-biotinylated in Example 7))
- T1 construct: captured on streptavidin (SA) chip; also called Biotinylated Aβ peptide 1-40; Aβ1-40 on SA chip
- T1 sequence (peptide, as listed by the source): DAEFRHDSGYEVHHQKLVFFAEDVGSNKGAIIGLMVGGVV
- experiment.notes: SPR, Fab over Aβ1-40 on SA chip
observable: koff

Examples with answers:
>  <binder>
9TL variant M40 Fab (Fab, V domains shown, Fab; human IgG2 CH1 and kappa CL) VH: QVQLVQSGAEVKKPGASVKVSCKASGYYTEAYYIHWVRQAPGQGLEWMGRIDPATGNTKYAPRLQDRVTMTRDTSTSTVYMELSSLRSEDTAVYYCASLYSTPVYWGQGTTVTVSS VL: DVVMTQSPLSLPVTLGQPASISCKSSQSLLYSDAKTYLNWFQQRPGQSPRRLIYQISRLDPGVPDRFSGSGSGTDFTLKISRVEAEDVGVYYCLQGTHYPVLFGQGTRLEIKR

>  <koff>
0.0045 s⁻¹

$$$$
>  <binder>
9TL variant M14 Fab (Fab, V domains shown, Fab; human IgG2 CH1 and kappa CL) VH: QVQLVQSGAEVKKPGASVKVSCKASGYYTEAYYIHWVRQAPGQGLEWMGRIDPATGNTKYAPRLQDRVTMTRDTSTSTVYMELSSLRSEDTAVYYCASLYSLPVYWGQGTTVTVSS VL: DVVMTQSPLSLPVTLGQPASISCKSSQSLLYSDAKTYLNWFQQRPGQSPRRLIYQISRLDPGVPDRFSGSGSGTDFTLKISRVEAEDVGVYYCLQGTLYPVLFGQGTRLEIKR

>  <koff>
0.0016 s⁻¹

$$$$
>  <binder>
9TL variant M18 Fab (Fab, V domains shown, Fab; human IgG2 CH1 and kappa CL) VH: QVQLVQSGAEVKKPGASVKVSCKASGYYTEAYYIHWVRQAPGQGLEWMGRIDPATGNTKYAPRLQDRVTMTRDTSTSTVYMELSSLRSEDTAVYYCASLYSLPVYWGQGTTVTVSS VL: DVVMTQSPLSLPVTLGQPASISCKSSQSLLYSDAKTYLNWFQQRPGQSPRRLIYQISRLDPGVPDRFSGSGSGTDFTLKISRVEAEDVGVYYCLQGTHQPVLFGQGTRLEIKR

>  <koff>
0.0015 s⁻¹

$$$$
>  <binder>
9TL variant M11 Fab (Fab, V domains shown, Fab; human IgG2 CH1 and kappa CL) VH: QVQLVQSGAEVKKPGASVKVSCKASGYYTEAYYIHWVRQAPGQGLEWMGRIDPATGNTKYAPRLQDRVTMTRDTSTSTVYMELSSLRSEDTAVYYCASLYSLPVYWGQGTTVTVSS VL: DVVMTQSPLSLPVTLGQPASISCKSSQSLLYSDAKTYLNWFQQRPGQSPRRLIYQISRLDPGVPDRFSGSGSGTDFTLKISRVEAEDVGVYYCLQSTHYPVLFGQGTRLEIKR

>  <koff>
0.002 s⁻¹

$$$$

Now, please, on to the next binder.
stdin: Query (binder): 9TL variant M46 Fab (Fab, V domains shown, Fab; human IgG2 CH1 and kappa CL) VH: QVQLVQSGAEVKKPGASVKVSCKASGYYTEAYYIHWVRQAPGQGLEWMGRIDPATGNTKYAPRLQDRVTMTRDTSTSTVYMELSSLRSEDTAVYYCASLYSLPCYWGQGTTVTVSS VL: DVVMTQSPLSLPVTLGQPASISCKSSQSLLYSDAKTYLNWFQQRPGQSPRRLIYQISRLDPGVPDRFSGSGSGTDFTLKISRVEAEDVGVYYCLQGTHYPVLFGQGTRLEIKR ; field requested: koff
stdout: 0.02 s⁻¹
